meta.source: ChEMBL document CHEMBL1201862

measurement_target: RNA-binding protein pos-1 (Caenorhabditis elegans, UniProt G5EF15)
Sequence (G5EF15 whole entry): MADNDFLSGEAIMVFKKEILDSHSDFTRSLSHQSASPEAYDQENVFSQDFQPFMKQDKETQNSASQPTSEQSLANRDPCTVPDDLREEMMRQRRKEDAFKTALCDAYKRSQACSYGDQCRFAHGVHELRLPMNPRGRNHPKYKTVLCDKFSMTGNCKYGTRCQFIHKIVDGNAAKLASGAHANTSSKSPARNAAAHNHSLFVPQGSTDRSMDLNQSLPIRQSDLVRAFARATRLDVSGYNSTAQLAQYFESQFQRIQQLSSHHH
assay: disruptors of C. elegans POS-1 RNA interaction – biochemical, fluorescence polarization, dose response (AID 1964);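 note: purified POS-1 fused to maltose binding protein made in E. coli; potency of compounds blocking POS-1 binding to fluorescent RNA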
The source made the active and inactive calls. Cut-off read from the data, not from the text of the source: actives have a measured EC50 and inactives only a lower limit.
observable: EC50

[
  {
    "compound": "Oc1ccc(/C=N/NC(=S)Nc2cccnc2)c(O)c1O",
    "measurement_target": "RNA-binding protein pos-1 (Caenorhabditis elegans, UniProt G5EF15)",
    "endpoint_value": "71.4 µM (active)"
  }
]

Record EC50 for all entries; do not skip any.
1. CN(C)CCCN/C=C1\C(=O)NC(=O)N(CCc2ccc(F)cc2)C1=O
2. CC1CN(c2nc3ccccc3nc2C(C#N)C(=O)NC2CCCCC2)CC(C)O1 (stereo unspecified)

Solution:
1: > 300 µM (not active); 2: > 300 µM (not active)

Provide each entry's EC50 from the list below.
1. Cc1ccc(C(=O)C2=C(O)C(=O)N(Cc3ccco3)C2c2ccc(N(C)C)cc2)o1 (stereo unspecified)
2. CN1CCc2c(sc3c2C(=O)NC(c2ccccn2)N3)C1 (stereo unspecified)
3. CCCCCN1C=CC=C/C1=C\C=C(C#N)C#N

Solution:
1: > 300 µM (not active); 2: 15.1 µM (active); 3: 30.3 µM (inconclusive)
